system: EKVX; test: NCI tumour cell line growth inhibition, 48 h
Calls of active or inactive are those of the source. Cut-off read from the data, not from the text of the source: active = GI50 up to about 1.1 µM and inactive = higher.
reportedEndpoint: GI50

compound: COc1cccc(NC(=O)CC(=O)N2N=C(n3ccc4ccccc43)CC2c2ccccc2)c1 (centres undefined)
reportedEndpoint: GI50
result: > 100 µM (inactive)
//
compound: CS[C@]12C(=O)C[C@@]3(C)[C@@H](CC[C@]3(O)C(=O)CO)[C@@H]1CCC1=CC(=O)CC[C@@]12C
reportedEndpoint: GI50
result: > 100 µM (inactive)
//
compound: C/C(=N\N)C(CN(C)C)C(c1ccccc1)c1c(O)c2ccccc2oc1=O (centres undefined)
reportedEndpoint: GI50
result: > 70.8 µM (inactive)
//
compound: CCOC(=O)/C(C(=O)Nc1ccc(F)cc1)=C(/N)N1CCOCC1
reportedEndpoint: GI50
result: > 100 µM (inactive)
//
compound: Nc1nc(N)c2nc(CNc3ccc(C(=O)NC(CCCCNC(=O)c4ccccc4C(=O)O)C(=O)O)cc3)cnc2n1 (centres undefined)
reportedEndpoint: GI50
result: > 34.4 µM (inactive)

Now consider the entry below.
Query string: Using the record for CCC(=O)OC1CCn2c1nc1c2C(=O)C(C)=C(NC(C)=O)C1=N (centres undefined) , report its GI50.
Result string: 2.63 µM (inactive)

###

test system: Hs-578T; assay: NCI tumour cell line growth inhibition, 48 h
The source made the active and inactive calls. Cut-off read from the data, not from the text of the source: active = GI50 up to about 1.1 µM and inactive = higher. Where a SMILES comes first, the peptide text is derived from it. The star is where a group is joined. Boc = CC(C)(C)OC(=O)*
The entries below come with measured GI50 values attached.

Consider the reported GI50 for these compounds:
compound: c1ccc2c(-c3csc(-c4c[nH]c5ccccc45)n3)c[nH]c2c1
GI50: 61.1 µM (inactive)
//
compound: COc1c(C)c(C/C=C(\C)CCCCO[Si](C(C)C)(C(C)C)C(C)C)c(OC)c2ccccc12
GI50: > 100 µM (inactive)
//
compound: Nc1ccc(-c2nc3cc(F)ccc3s2)cc1I
GI50: 25.2 µM (inactive)

Query string: Using the record for Cc1cc(C)c(S(=O)(=O)N2CCCN(S(=O)(=O)c3c(C)cc(C)cc3C)OCCCO2)c(C)c1 , report its GI50.
Result string: > 100 µM (inactive)

Query string: Using the record for CC(=O)Nc1cc2cc(N)ccc2oc1=O , report its GI50.
Result string: > 100 µM (inactive)

Query string: Using the record for Nc1nc(N)c2cc(-c3ccccc3)cnc2n1 , report its GI50.
Result string: 20.2 µM (inactive)

Query string: Using the record for COC(=O)C(C)NC(=O)C(CCSC)NC(=O)C(Cc1ccccc1)NC(=O)OC(C)(C)C (stereo not drawn) (Boc-Phe-Met-Ala-OMe; configuration not given here) , report its GI50.
Result string: > 100 µM (inactive)

Query string: Using the record for CC(C)(C)OC(=O)Cn1ncn(NC(=O)Cc2ccccc2)c1=S , report its GI50.
Result string: > 10 µM (inactive)

Query string: Using the record for COc1ccc(C2NC(=O)Nc3c2c(=O)oc2c3ccc3ccccc32)cc1 (stereo unspecified) , report its GI50.
Result string: 41.4 µM (inactive)

Query string: Using the record for c1ccc2sc(SCN(C3CCCCC3)C3CCCCC3)nc2c1 , report its GI50.
Result string: > 100 µM (inactive)

Query string: Using the record for COc1ccc(C[N+]23C(CC[C@H]2c2ccccc2)CC[C@H]3c2ccccc2)cc1 (stereo partly specified) , report its GI50.
Result string: 27.7 µM (inactive)

Query string: Using the record for CCOC(=O)N1CCC2(CC1)C[C@](Sc1ccccc1)(C(C)=O)[C@H](C)O2 , report its GI50.
Result string: > 100 µM (inactive)

Query string: Using the record for OC1(C(Sc2cc(C(F)(F)F)cc(C(F)(F)F)c2)Sc2cc(C(F)(F)F)cc(C(F)(F)F)c2)C=CCCC1 (stereo unspecified) , report its GI50.
Result string: 2.95 µM (inactive)

Query string: Using the record for Nc1nc(N)c2nc(CNc3ccc(C(=O)NC(CCCCNC(=O)c4ccccc4C(=O)O)C(=O)O)cc3)cnc2n1 (stereo unspecified) , report its GI50.
Result string: > 100 µM (inactive)

Query string: Using the record for CC(C)CCC[C@@H](C)C1CCC2[C@@H]3CCC4CC(CCC=C(c5cc(Cl)c(OC(=O)c6ccccc6)c(C(=O)O)c5)c5cc(Cl)c(OC(=O)c6ccccc6)c(C(=O)O)c5)CC[C@]4(C)C3CC[C@@]21C (stereo partly specified) , report its GI50.
Result string: > 100 µM (inactive)

Query string: Using the record for CCCCCCCCCCCCN(CC(O)C(O)C(OC1OC(CO)C(O)C(O)C1O)C(O)CO)C(=O)CCCCCCCCCCC (stereo unspecified) , report its GI50.
Result string: 26.3 µM (inactive)

###

tested on: SW-620; assay: NCI tumour cell line growth inhibition, 48 h
Calls of active or inactive are those of the source. No stated cut-off is given here; in the data, active = GI50 up to about 1.1 µM and inactive = higher.
The entries below come with measured GI50 values attached.

Consider the reported GI50 for these compounds:
compound: CC1(c2cccc3c2C2(O)C=CC4(CCC32)OCCO4)OCCO1 (stereo unspecified)
GI50: > 100 µM (inactive)
//
compound: O=[N+]([O-])c1cc(/C=N/C23CC4CC(CC(C4)C2)C3)ccc1Cl
GI50: 13 µM (inactive)
//
compound: Cc1ccc2c(c1)CC1(Cc3ccccc3C1=O)C2=O (stereo unspecified)
GI50: > 100 µM (inactive)
//
compound: CCOC(=O)C1N(S(=O)(=O)c2ccc(C)cc2)CCC12C(c1ccc(OC)c(OC)c1)=Nc1ccccc12 (stereo unspecified)
GI50: > 100 µM (inactive)
//
compound: O=CNC(Cc1c[nH]cn1)C(=O)O (stereo unspecified)
GI50: > 100 µM (inactive)

Query string: Using the record for C#C[C@]1(O)CC[C@H]2[C@@H]3CCC4=C/C(=N/OC(=O)c5cccc6c(=O)c7ccccc7[nH]c56)CC[C@@H]4[C@H]3CC[C@@]21C , report its GI50.
Result string: 56.2 µM (inactive)

###

test system: DU-145; experiment: NCI tumour cell line growth inhibition, 48 h
Active and inactive are the calls of the source. No stated cut-off is given here; in the data, active = GI50 up to about 1.1 µM and inactive = higher.
reportedEndpoint: GI50

molecule: CCCC1NC(C#N)(C#N)C(CCC)NC1(C#N)C#N (stereo not drawn)
GI50: 3.78 µM (inactive)

molecule: O=[N+]([O-])c1ccc(/C=N/n2c(CO)nc3ccccc32)o1
GI50: 3.27 µM (inactive)

molecule: CS[C@]12C(=O)C[C@@]3(C)[C@@H](CC[C@]3(O)C(=O)CO)[C@@H]1CCC1=CC(=O)CC[C@@]12C
GI50: > 100 µM (inactive)

Query string: Checklist item: GI50 tested on DU-145, entry C[C@@H](CC(=O)O)OC1OC(COC(=O)C(C)(C)C)C(OC(=O)C(C)(C)C)C(OC(=O)C(C)(C)C)C1OC(=O)C(C)(C)C (stereo partly drawn) , value?
Result string: 59.6 µM (inactive)

Query string: Checklist item: GI50 tested on DU-145, entry C=CCC(CCC(C)=O)(C(=O)OCC)C(=O)OCC , value?
Result string: > 100 µM (inactive)

Query string: Checklist item: GI50 tested on DU-145, entry CC(C)NC(=O)OCc1c(COC(=O)NC(C)C)c(-c2ccc[n+](COC(=O)CC(C)(C)C)c2)n2c1CCC2 , value?
Result string: > 100 µM (inactive)

Query string: Checklist item: GI50 tested on DU-145, entry OC(C/C=N/Nc1ccccc1)(C(F)(F)Cl)C(F)(F)Cl , value?
Result string: > 10 µM (inactive)

Query string: Checklist item: GI50 tested on DU-145, entry Cc1ccc2c(c1)CC1(Cc3ccccc3C1=O)C2=O (stereo not drawn) , value?
Result string: > 100 µM (inactive)

###

test system: SK-MEL-2; assay: NCI tumour cell line growth inhibition, 48 h
The source made the active and inactive calls. Cut-off read from the data, not from the text of the source: active = GI50 up to about 1.1 µM and inactive = higher.
Result category, one only: class 1 for active, class 0 for inactive

Query string: Lab log entry: NS(=O)(=O)c1ccc(/N=N/c2ccc(O)cc2)cc1 — outcome as called in the assay?
Result string: class 0

###

test system: Hs-578T; assay: NCI tumour cell line growth inhibition, 48 h
Activity calls are given as the source filed them. No stated cut-off is given here; in the data, active = GI50 up to about 1.1 µM and inactive = higher.
Result category, one only: active, inactive

As a guide, the following entries are already answered.
compound: CCOC(=O)CC(=O)Nc1cccc2nc[nH]c12
targetOrTestSystem: Hs-578T
answerLabel: active
--
compound: OC(C/C=N/Nc1ccccc1)(C(F)(F)Cl)C(F)(F)Cl
targetOrTestSystem: Hs-578T
answerLabel: inactive

Query string: Lab log entry: NCCCCNCCCNC(=O)CNC(=O)CC(O)C(N)CCCC(NC(=O)C(CN)NC(=O)C(O)CNC(=O)CC(N)c1ccc(O)cc1)C(=O)O (centres undefined) — outcome as called in the assay?
Result string: inactive

Query string: Lab log entry: O=S(=O)(O)c1cc(S(=O)(=O)O)c2c(/N=N/c3cccc4ccccc34)c(O)ccc2c1 — outcome as called in the assay?
Result string: inactive

// data source = ChEMBL document CHEMBL1201862
